List of fold change (FC) values.
system: HEK293; test: Cytotoxicity against human HEK293 cells assessed as decrease in cell viability after 48 hrs by MTT assay relative to resveratrol; type: cell-based; details: hek293, 48 h
Could you keep your reply to the number by itself?

Study these solved cases before continuing.
Oc1ccc(/C=N/CCn2ccc3ccccc32)c(O)c1 ... 2.7
Oc1ccc(/C=N/CCn2ccc3cccnc32)c(O)c1 ... 3.9
Cl.Nc1ncnc2c1ncn2CCNCC/N=C/c1ccc(O)cc1O ... 4.7
O=C(NCCNc1ccnc2cc(Cl)ccc12)c1cnccn1 ... 1.6
Cl.Oc1ccc(/C=N/CCNCCn2cnc3ccccc32)c(O)c1 ... 2.6

Input line: Find fold change (FC) (HEK293) for the entry Oc1ccccc1/C=N/CCNc1ccnc2cc(Cl)ccc12
Output line: 1.6

---

assay: Disaggregation of Cu2+ induced amyloid beta (1 to 40) preformed fibrils assessed as aggregation level at 100 uM after 12 days by UV-visible turbidity method (reference value: 120.73 +/- 1.86%)
attribute.measured: Activity (%)
# value in %; strip the unit string

Some molecules with recorded Activity:
Oc1ccccc1/C=N/CCNc1ccnc2cc(Cl)ccc12 ... 54.8
O=C(NCCNc1ccnc2cc(Cl)ccc12)c1cnccn1 ... 57.6
Cl.Oc1ccc(/C=N/CCNCCn2cnc3ccccc32)c(O)c1 ... 38.6
Oc1ccc(/C=N/CCn2ccc3cccnc32)c(O)c1 ... 59.7
Cl.Nc1ncnc2c1ncn2CCNCC/N=C/c1ccc(O)cc1O ... 30.9
Oc1ccc(/C=N/CCn2ccc3ccccc32)c(O)c1 ... 47.5

Input line: What does the record list as Activity for Oc1ccc(/C=C/c2cc(O)cc(O)c2)cc1 ?
Output line: 20.2

---

target: Beta-secretase 1 (Homo sapiens); test: Inhibition of BACE 1 (unknown origin) using 250 nM of Rh-EVNLDAEFK-Quencher as substrate after 1 hr by FRET assay
Sequence (P56817 whole entry): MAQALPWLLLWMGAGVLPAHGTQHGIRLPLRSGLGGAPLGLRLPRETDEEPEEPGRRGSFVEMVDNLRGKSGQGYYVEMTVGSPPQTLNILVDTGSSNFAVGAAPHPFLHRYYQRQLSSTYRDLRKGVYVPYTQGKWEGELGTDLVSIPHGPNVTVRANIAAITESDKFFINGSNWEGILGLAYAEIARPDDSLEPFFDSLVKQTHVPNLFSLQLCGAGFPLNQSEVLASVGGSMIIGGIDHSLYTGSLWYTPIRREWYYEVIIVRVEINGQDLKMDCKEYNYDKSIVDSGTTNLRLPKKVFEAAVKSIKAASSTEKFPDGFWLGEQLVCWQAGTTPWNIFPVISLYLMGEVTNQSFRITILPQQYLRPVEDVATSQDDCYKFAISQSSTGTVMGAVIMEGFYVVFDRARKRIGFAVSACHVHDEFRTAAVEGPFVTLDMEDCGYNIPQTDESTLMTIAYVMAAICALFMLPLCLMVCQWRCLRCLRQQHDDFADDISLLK
attribute.measured: IC50 (µM)
Could you give me the number in µM? Just the number is fine.

Worked set:
Oc1ccc(/C=N/CCn2ccc3ccccc32)c(O)c1 ... 4.4
Cl.Nc1ncnc2c1ncn2CCNCC/N=C/c1ccc(O)cc1O ... 41.4
Cl.Oc1ccc(/C=N/CCNCCn2cnc3ccccc32)c(O)c1 ... 15.6

Input line: Query for Beta-secretase 1 (Homo sapiens): what IC50 does the record show for Oc1ccc(/C=N/CCn2ccc3cccnc32)c(O)c1 ?
Output line: 107

Input line: Queued: O=C(NCCNc1ccnc2cc(Cl)ccc12)c1cnccn1
Output line: 1.7

---

Below, each entry is listed alongside its reported Flu intensity.
target: Amyloid-beta precursor protein (Homo sapiens) (UniProt P05067); assay: Disaggregation of self-induced amyloid beta (1 to 40) (unknown origin) preformed fibrils assessed as fluorescence emission at 100 uM after 12 days by thioflavin-T based assay; parameters: reference not given here
Sequence (P05067 whole entry): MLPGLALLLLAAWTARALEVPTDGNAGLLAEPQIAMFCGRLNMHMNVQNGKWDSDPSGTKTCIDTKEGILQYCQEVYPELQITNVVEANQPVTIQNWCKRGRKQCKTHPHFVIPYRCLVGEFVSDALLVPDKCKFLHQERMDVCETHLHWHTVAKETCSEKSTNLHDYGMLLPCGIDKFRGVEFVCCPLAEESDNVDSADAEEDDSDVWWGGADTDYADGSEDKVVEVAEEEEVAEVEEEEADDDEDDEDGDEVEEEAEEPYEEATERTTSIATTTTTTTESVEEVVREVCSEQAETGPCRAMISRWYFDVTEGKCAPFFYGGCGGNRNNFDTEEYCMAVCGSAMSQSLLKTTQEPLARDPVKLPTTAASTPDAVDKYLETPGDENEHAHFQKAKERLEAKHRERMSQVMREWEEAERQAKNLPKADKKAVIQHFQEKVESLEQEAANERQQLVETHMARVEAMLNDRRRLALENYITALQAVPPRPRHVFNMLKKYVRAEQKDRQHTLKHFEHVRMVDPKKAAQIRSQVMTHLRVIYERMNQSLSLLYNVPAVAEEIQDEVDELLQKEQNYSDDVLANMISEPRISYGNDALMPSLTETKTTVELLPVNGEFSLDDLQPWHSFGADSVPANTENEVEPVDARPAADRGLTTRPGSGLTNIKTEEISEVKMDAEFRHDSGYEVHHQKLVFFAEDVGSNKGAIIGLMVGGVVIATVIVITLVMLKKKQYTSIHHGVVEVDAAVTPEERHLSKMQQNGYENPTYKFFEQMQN
Output: the number by itself.

Oc1ccc(/C=N/CCn2ccc3cccnc32)c(O)c1 ... 219
Oc1ccc(/C=C/c2cc(O)cc(O)c2)cc1 ... 114
Cl.Oc1ccc(/C=N/CCNCCn2cnc3ccccc32)c(O)c1 ... 160
O=C(NCCNc1ccnc2cc(Cl)ccc12)c1cnccn1 ... 224
Cl.Nc1ncnc2c1ncn2CCNCC/N=C/c1ccc(O)cc1O ... 226
Oc1ccccc1/C=N/CCNc1ccnc2cc(Cl)ccc12 ... 230

Input line: Need Flu intensity, item Oc1ccc(/C=N/CCn2ccc3ccccc32)c(O)c1
Output line: 183
